readout: melting point

Consider the compound shown here: COC[C@H]1CN(c2ccc(OCCC3(O)CCCCC3)cc2)C(=O)O1 What is its recorded melting point?
87 °C

Try the compound CCC1(N)CCN(c2c(F)c(N)c3c(=O)c(C(=O)O)cn(C4CC4)c3c2F)C1 (stereo not given)
205 to 206 °C

Try the compound CCOC(=O)COc1c(C)cc(C)c2c1CC(Br)C2=O (stereo not given)
71 to 73 °C

Try the compound N#Cc1ccccc1NC(=O)C(=O)N1CCC(Cc2ccc(F)cc2)CC1
101 to 103 °C

Try the compound COC(=O)C(=O)Nc1cc(OCCCOc2ccc(C(C)=O)c(O)c2CCC(F)(F)F)c(Br)cc1C
139 to 140 °C

Try the compound C[C@H]([C@@H](C)P(=S)(c1ccccc1)c1ccccc1)P(=S)(c1ccccc1)c1ccccc1
213 to 214 °C

Try the compound C=CCNC(=O)ON=C1SCC(=O)N1CC
103 to 104 °C

Try the compound CN(Cc1ccccc1)Cc1cnc(NC(=O)C(Cc2ccc(F)cc2)c2ccc(S(C)(=O)=O)cc2)cn1 (stereo not given)
99 to 100 °C

Try the compound Cc1ccc(S(=O)(=O)NC(=O)c2nc(Cl)c(Cl)[nH]2)cc1
238 °C

Try the compound CCOC(=O)c1ncn(-c2ccc(C(F)(F)F)cc2N)c1C
185 to 186 °C
